Answer each item with its documented fraction unbound.
Assay: in vitro
Details: blood

Solved entries (count: 3):
[
  {
    "compound": "C=C[C@H]1C[N@@]2CC[C@H]1C[C@@H]2[C@@H](O)c1ccnc2ccc(OC)cc12 [QUINIDINE]",
    "fraction unbound": 0.15
  },
  {
    "compound": "CC(=O)C[C@@H](c1ccccc1)c1c(O)c2ccccc2oc1=O",
    "fraction unbound": 0.018
  },
  {
    "compound": "COc1ccc(Cl)cc1C(=O)NCCc1ccc(S(=O)(=O)NC(=O)NC2CCCCC2)cc1 [GLYBURIDE]",
    "fraction unbound": 0.004
  }
]

Below is a list of compounds. For each, state its recorded fraction unbound.
1. CN(C)CCCN1c2ccccc2Sc2ccc(Cl)cc21 [CHLORPROMAZINE]
2. Cn1c(=O)c2c(ncn2C)n(C)c1=O [CAFFEINE]

Reply:
[0.053, 0.65]

====

Assay: in vitro
Conditions: human, cryopreserved HepaRG cells
Description: Intrinsic clearance in cryopreserved human HepaRG cells assessed per 10^6 cells by LC-MS/MS method
experimental.endpoint: hepatocyte CLint (µL/min/1e6 cells)
Give bare numbers, in µL/min/1e6 cells.

Recorded results for 3 molecules are shown here.
[
  {
    "molecule": "CCC1=C(C)CN(C(=O)NCCc2ccc(S(=O)(=O)NC(=O)N[C@H]3CC[C@H](C)CC3)cc2)C1=O [GLIMEPIRIDE]",
    "unit.of.measurement": "µL/min/1e6 cells",
    "value.observed": 6.17
  },
  {
    "molecule": "C=CCc1ccccc1OCC(O)CNC(C)C (configuration not stated) [ALPRENOLOL]",
    "unit.of.measurement": "µL/min/1e6 cells",
    "value.observed": 25.1
  },
  {
    "molecule": "CN(C)CCCN1c2ccccc2CCc2ccc(Cl)cc21 [CLOMIPRAMINE]",
    "unit.of.measurement": "µL/min/1e6 cells",
    "value.observed": 122
  }
]

Go through the list and state hepatocyte CLint for each entry.
1. COCCc1ccc(OCC(O)CNC(C)C)cc1 (configuration not stated) [METOPROLOL]
2. OCCN1CCN(CCCN2c3ccccc3Sc3ccc(C(F)(F)F)cc32)CC1 [FLUPHENAZINE]
3. Cn1c(=O)c2c(ncn2C)n(C)c1=O [CAFFEINE]
4. CCOc1ccc(NC(C)=O)cc1 [PHENACETIN]

Reply:
1: 8.41; 2: 71.6; 3: 6.3; 4: 13.7

====

Test: physchem
Conditions: octanol/water
Description: Lipophilicity, log P of the compound
experimental.endpoint: logP
One number for each entry.

// below: answered molecules
[
  {
    "molecule": "CC(C(=O)O)c1cccc(Oc2ccccc2)c1 (stereo not given) [FENOPROFEN]",
    "logP": 0.8
  },
  {
    "molecule": "CC(=O)C[C@@H](c1ccccc1)c1c(O)c2ccccc2oc1=O",
    "logP": 2.5
  },
  {
    "molecule": "C=CCc1ccccc1OCC(O)CNC(C)C (stereo not given) [ALPRENOLOL]",
    "logP": 3.12
  },
  {
    "molecule": "COCCc1ccc(OCC(O)CNC(C)C)cc1 (stereo not given) [METOPROLOL]",
    "logP": 1.93
  }
]

Task item: Return reported logP; argument: C[C@H]1C[C@@H]2[C@H]([C@@H](O)C[C@@]3(C)[C@H]2CC[C@]3(O)C(=O)CO)[C@@]2(C)C=CC(=O)C=C12 [METHYLPREDNISOLONE]
Reply: 1.5

====

Assay: in vitro
Details: human, hepatocytes
Description: Intrinsic clearance in human using well stirred liver model by LC-MS/MS method
Give CLint scaled for every item shown.
Give bare numbers, in mL/min/kg.

Answered cases to consult:
[
  {
    "compound": "CC(CN(C)C)CN1c2ccccc2CCc2ccccc21 (centres undefined)",
    "value.observed": 1340
  },
  {
    "compound": "OCCN1CCN(CCCN2c3ccccc3Sc3ccc(C(F)(F)F)cc32)CC1",
    "value.observed": 1580
  },
  {
    "compound": "Cc1nc2n(c(=O)c1CCN1CCC(c3noc4cc(F)ccc34)CC1)CCCC2",
    "value.observed": 43
  },
  {
    "compound": "Cn1c(=O)c2c(ncn2C)n(C)c1=O",
    "value.observed": 2.79
  }
]

Hi! Can you tell me CLint scaled for each of these compounds?
1. C[C@]12C=CC(=O)C=C1CC[C@@H]1[C@@H]2[C@@H](O)C[C@@]2(C)[C@H]1CC[C@]2(O)C(=O)CO
2. COc1ccc(Cl)cc1C(=O)NCCc1ccc(S(=O)(=O)NC(=O)NC2CCCCC2)cc1 [GLYBURIDE]
3. O=c1n(CCCN2CCN(c3cccc(Cl)c3)CC2)nc2ccccn12
4. C=CCc1ccccc1OCC(O)CNC(C)C (centres undefined)
5. COCCc1ccc(OCC(O)CNC(C)C)cc1 (centres undefined)

Reply:
[27.1, 347, 32.5, 117, 46.5]

====

Assay: in vitro
Conditions: human, cryopreserved hepatocytes
Returns Satisfied if the recorded hepatocyte CLint is greater than or equal to 10 µL/min/1e6 cells, and Not satisfied otherwise.

See these solved cases before continuing.
[
  {
    "compound": "CC(C(=O)O)c1ccc(-c2ccccc2)c(F)c1 (centres undefined) [FLURBIPROFEN]",
    "class.name": "Not satisfied"
  },
  {
    "compound": "CC(CN(C)C)CN1c2ccccc2CCc2ccccc21 (centres undefined) [TRIMIPRAMINE]",
    "class.name": "Satisfied"
  },
  {
    "compound": "CN(C)CCCN1c2ccccc2Sc2ccccc21 [PROMAZINE]",
    "class.name": "Satisfied"
  },
  {
    "compound": "C=CCc1ccccc1OCC(O)CNC(C)C (centres undefined) [ALPRENOLOL]",
    "class.name": "Satisfied"
  },
  {
    "compound": "C[C@]12C=CC(=O)C=C1CC[C@@H]1[C@@H]2[C@@H](O)C[C@@]2(C)[C@H]1CC[C@]2(O)C(=O)CO [PREDNISOLONE]",
    "class.name": "Satisfied"
  },
  {
    "compound": "Cn1c(=O)c2[nH]cnc2n(C)c1=O.O [THEOPHYLLINE]",
    "class.name": "Not satisfied"
  }
]

Task item: Could you verify whether the entry C[C@H]1C[C@@H]2[C@H]([C@@H](O)C[C@@]3(C)[C@H]2CC[C@]3(O)C(=O)CO)[C@@]2(C)C=CC(=O)C=C12 [METHYLPREDNISOLONE] shows hepatocyte CLint of no less than 10 µL/min/1e6 cells?
Reply: Satisfied

Task item: Kindly determine if hepatocyte CLint recorded for Cn1c(=O)c2c(ncn2C)n(C)c1=O [CAFFEINE] is above or exactly 10 µL/min/1e6 cells.
Reply: Not satisfied

====

Provide the reported hepatocyte CLint of each item.
Assay: in vitro
Conditions: human, cryopreserved hepatocytes
Give bare numbers, in µL/min/1e6 cells.

Go through the list and state hepatocyte CLint for each entry.
1. CN1CCN(CCCN2c3ccccc3Sc3ccc(Cl)cc32)CC1
2. CC(=O)C[C@@H](c1ccccc1)c1c(O)c2ccccc2oc1=O
3. COCCc1ccc(OCC(O)CNC(C)C)cc1 (stereo unspecified)
4. O=c1n(CCCN2CCN(c3cccc(Cl)c3)CC2)nc2ccccn12
5. CCOc1ccc(NC(C)=O)cc1

Reply:
[51.7, 6.93, 13, 12.2, 8.94]

Task item: Entry CC(C(=O)O)c1cccc(Oc2ccccc2)c1 (stereo unspecified) : reported hepatocyte CLint = ?
Reply: 8.5

FYI, the data here is from ChEMBL document CHEMBL3526137.
